The origin of these recorded values is the array DNA melting data of Ke et al..

- TEST_SUMMARY: melting temperature; melt of duplexes
- CONDITION_INFO: sodium 0.0675 M; strand 1 µM
Classify as follows. Reported Tm greater than or equal to 50 °C: T. Reported Tm below: F.

SUBSTANCE	LABEL
CGACGTGCCACATGTGCTG+CAGCACATGTCGCACGTCG ((((((((.((((((((((+)))))))))).))))))))	T
CGACGTGCCTCATGTGCTG+CAGCACATGAGGCACGTCG (((((((((((((((((((+)))))))))))))))))))	T
CGACGTGCGGAATGTGCTG+CAGCACATACGGCACGTCG ((((((((.(.((((((((+)))))))).).))))))))	T
CGACGTGCCAGATGTGCTG+CAGCACATCATGCACGTCG ((((((((..(((((((((+)))))))))..))))))))	T
CGACGTGCAATATGTGCTG+CAGCACATAAAGCACGTCG ((((((((..(((((((((+)))))))))..))))))))	T
CGACGTGCCCTATGTGCTG+CAGCACATGGCGCACGTCG ((((((((.(.((((((((+)))))))).).))))))))	T
CGACGTGCCTCATGTGCTG+CAGCACATCTGGCACGTCG (((((((((..((((((((+))))))))..)))))))))	T
CGACGTGCACGATGTGCTG+CAGCACATTGCGCACGTCG ((((((((.(.((((((((+)))))))).).))))))))	T
CGACGTGCACAATGTGCTG+CAGCACATCCGGCACGTCG ((((((((...((((((((+))))))))...))))))))	F
CGACGTGCCTTATGTGCTG+CAGCACATATGGCACGTCG (((((((((.(((((((((+))))))))).)))))))))	T

Q) Check if Tm >= 50 °C (inclusive). Item: CGACGTGCGTGATGTGCTG+CAGCACATGGTGCACGTCG ((((((((...((((((((+))))))))...))))))))
A) F

Q) Is Tm at least 50 °C? Consider CGACGTGCGTAATGTGCTG+CAGCACATAACGCACGTCG ((((((((((.((((((((+)))))))).))))))))))
A) T

Q) Identify whether the reported Tm of the following substance is 50 °C or greater: CGACGTGCGCAATGTGCTG+CAGCACATGAGGCACGTCG ((((((((...((((((((+))))))))...))))))))
A) T

Q) State whether the measured Tm reaches 50 °C, counting equality as reaching it, for CGACGTGCCGGATGTGCTG+CAGCACATTCGGCACGTCG ((((((((((.((((((((+)))))))).))))))))))
A) T
